Tested on: HCT116 (MLH1 deficient)
Assay: xCELLigence real time cell proliferation/cytotoxicity
Conditions: read-out: IC50, cytotoxicity; HCT116, 5, 10, 20 μM, 72 h, RTCA software
Experimental Endpoint: IC50 (µM)
// note: answer is a bare numeric in µM

Record Nc1c(/N=N/c2ccc(-c3ccc(/N=N/c4cc(S(=O)(=O)O)c5ccccc5c4N)cc3)cc2)cc(S(=O)(=O)O)c2ccccc12 [Formula II] / HCT116 (MLH1 deficient), IC50 recorded as 5.19

Reference source for all entries: patent US11883419B2
